Target: Phosphatidylinositol 4,5-bisphosphate 3-kinase catalytic subunit alpha isoform (Homo sapiens, UniProt P42336)
Sequence (P42336 whole entry, canonical isoform): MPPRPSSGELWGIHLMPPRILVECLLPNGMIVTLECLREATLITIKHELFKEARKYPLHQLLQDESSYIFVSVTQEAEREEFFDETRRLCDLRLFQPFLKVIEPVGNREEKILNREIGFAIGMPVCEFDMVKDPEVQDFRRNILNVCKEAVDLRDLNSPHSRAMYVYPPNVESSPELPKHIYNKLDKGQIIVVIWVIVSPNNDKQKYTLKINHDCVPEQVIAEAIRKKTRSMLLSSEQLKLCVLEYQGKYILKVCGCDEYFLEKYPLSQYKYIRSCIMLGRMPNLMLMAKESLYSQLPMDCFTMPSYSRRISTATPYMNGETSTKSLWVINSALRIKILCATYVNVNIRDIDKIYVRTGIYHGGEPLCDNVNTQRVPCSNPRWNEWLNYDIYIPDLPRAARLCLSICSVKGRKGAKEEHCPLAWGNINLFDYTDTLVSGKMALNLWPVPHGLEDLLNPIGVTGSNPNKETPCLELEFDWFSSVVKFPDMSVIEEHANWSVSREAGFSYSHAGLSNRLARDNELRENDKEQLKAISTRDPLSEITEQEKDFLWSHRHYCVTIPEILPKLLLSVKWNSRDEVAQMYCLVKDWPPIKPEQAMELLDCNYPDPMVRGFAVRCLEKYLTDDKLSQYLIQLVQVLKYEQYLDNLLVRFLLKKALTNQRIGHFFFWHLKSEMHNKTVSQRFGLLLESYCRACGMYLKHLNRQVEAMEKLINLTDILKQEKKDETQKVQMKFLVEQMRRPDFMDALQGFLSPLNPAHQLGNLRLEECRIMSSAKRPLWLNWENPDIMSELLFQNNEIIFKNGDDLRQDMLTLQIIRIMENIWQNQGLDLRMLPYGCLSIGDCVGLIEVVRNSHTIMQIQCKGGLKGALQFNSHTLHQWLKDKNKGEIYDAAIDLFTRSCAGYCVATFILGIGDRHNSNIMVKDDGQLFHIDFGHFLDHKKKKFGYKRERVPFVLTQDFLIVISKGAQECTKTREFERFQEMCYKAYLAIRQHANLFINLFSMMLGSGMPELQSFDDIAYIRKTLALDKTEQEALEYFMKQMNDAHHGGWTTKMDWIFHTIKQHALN
Test: Inhibition of PI3Kalpha by luminescent kinase glo assay
pIC50: −log10 of the molar value.
Items are presented alongside their recorded pIC50.

A selection of reference data follows.
molecule | pIC50
Cc1cc(F)ccc1NCc1cc(C(=O)O)cc(N(CCO)CCO)n1 | < 4.00
Cc1cc(F)ccc1OCc1cc(C(N)=O)cc(N2CCOCC2)n1 | < 5.00
Cc1cc(F)ccc1NCc1cc(C(=O)NCCO)cc(NCCO)n1 | < 4.00

Consider the additional molecule presented here.
Fill in: pIC50 of Cc1cc(F)ccc1NCc1cc(C(=O)N2CCC(O)C2)cc(N2CCC(O)C2)n1 (centres undefined) is ___ < 4.00

###

Items are presented alongside their recorded IC50.
Target: Phosphatidylinositol 4,5-bisphosphate 3-kinase catalytic subunit gamma isoform (Homo sapiens, UniProt P48736)
Sequence (P48736 whole entry, canonical isoform): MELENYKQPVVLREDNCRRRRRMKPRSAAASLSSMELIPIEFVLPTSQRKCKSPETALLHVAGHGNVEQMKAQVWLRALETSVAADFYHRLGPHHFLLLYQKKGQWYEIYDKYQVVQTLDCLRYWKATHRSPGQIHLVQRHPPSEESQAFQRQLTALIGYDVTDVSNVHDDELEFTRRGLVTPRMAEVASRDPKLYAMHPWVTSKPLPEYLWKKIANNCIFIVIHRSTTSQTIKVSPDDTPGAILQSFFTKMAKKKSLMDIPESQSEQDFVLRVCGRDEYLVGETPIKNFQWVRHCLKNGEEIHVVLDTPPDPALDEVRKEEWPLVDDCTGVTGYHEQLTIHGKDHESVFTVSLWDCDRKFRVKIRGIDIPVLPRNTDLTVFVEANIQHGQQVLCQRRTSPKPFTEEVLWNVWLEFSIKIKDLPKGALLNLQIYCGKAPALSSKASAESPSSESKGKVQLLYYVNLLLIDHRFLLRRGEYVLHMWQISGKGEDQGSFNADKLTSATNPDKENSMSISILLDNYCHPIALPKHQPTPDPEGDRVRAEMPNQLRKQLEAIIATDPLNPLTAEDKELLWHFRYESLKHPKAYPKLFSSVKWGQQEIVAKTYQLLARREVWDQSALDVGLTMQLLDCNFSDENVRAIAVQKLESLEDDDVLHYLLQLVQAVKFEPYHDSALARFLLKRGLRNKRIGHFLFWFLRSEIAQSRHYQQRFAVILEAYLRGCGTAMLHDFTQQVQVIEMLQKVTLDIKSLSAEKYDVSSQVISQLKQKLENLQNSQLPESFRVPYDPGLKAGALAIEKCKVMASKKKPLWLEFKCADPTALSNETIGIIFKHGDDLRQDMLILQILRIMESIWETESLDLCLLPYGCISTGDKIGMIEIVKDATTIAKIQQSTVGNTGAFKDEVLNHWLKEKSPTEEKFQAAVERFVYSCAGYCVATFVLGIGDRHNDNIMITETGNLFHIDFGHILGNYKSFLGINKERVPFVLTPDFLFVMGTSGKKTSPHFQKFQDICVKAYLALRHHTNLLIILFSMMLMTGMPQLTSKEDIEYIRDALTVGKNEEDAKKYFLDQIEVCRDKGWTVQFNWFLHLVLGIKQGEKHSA
Assay: Inhibition of PI3Kgamma by luminescent kinase glo assay

Fill in: IC50 of "Cc1cc(F)ccc1OCc1cc(C(N)=O)cc(N2CCOCC2)n1" is ___ < 10 µM

###

Items are presented alongside their recorded pIC50.
Target: Phosphatidylinositol 4,5-bisphosphate 3-kinase catalytic subunit gamma isoform (Homo sapiens, UniProt P48736)
Assay: Inhibition of PI3Kgamma by luminescent kinase glo assay
pIC50: −log10 of the molar value.

A selection of reference data follows.
compound | pIC50
Cc1cc(F)ccc1OCc1cc(C(=O)O)cc(N2CCOCC2)n1 | 4.64
Cc1cc(F)ccc1OCc1cc(C(=O)NO)cc(N2CCOCC2)n1 | 5.00
Cc1cc(F)ccc1NCc1cc(C=O)cc(N2CCOCC2)n1 | 4.00
CCOC(=O)c1cc(CNc2ccc(F)cc2C)nc(N2CCOCC2)c1 | > 5.00
Cc1cc(F)ccc1NCc1cc(C(=O)O)cc(NCCO)n1 | < 4.00

Fill in: pIC50 of "Cc1cc(F)ccc1NCc1cc(C(=O)O)cc(-c2ccccc2O)n1" is ___ < 4.00

Fill in: pIC50 of "O=C(O)c1ccnc(N2CCOCC2)c1" is ___ < 4.00

Fill in: pIC50 of "Cc1cc(F)ccc1NCc1cc(C(=O)O)cc(-c2cccc(O)c2)n1" is ___ 4.38

###

Items are presented alongside their recorded IC50.
Target: Phosphatidylinositol 4,5-bisphosphate 3-kinase catalytic subunit gamma isoform (Homo sapiens, UniProt P48736)
Experiment: Inhibition of PI3Kgamma by luminescent kinase glo assay

A selection of reference data follows.
molecule | IC50
Cc1cc(F)ccc1NCc1cc(C(=O)N2CCC(O)C2)cc(N2CCC(O)C2)n1 (stereo not drawn) | > 100 µM
Cc1cc(F)ccc1NCc1cc(C(=O)O)cc(N(CCO)CCO)n1 | > 100 µM
Cc1cc(F)ccc1NCc1cc(C(=O)O)cc(Cl)n1 | > 100 µM
Cc1cc(F)ccc1NCc1cc(C(=O)O)cc(-c2cccnc2)n1 | > 100 µM
Cc1cc(F)ccc1NCc1cc(C(=O)O)cc(N2CCC(O)C2)n1 (stereo not drawn) | > 100 µM

Fill in: IC50 of "CCOC(=O)c1ccnc(N2CCOCC2)c1" is ___ > 100 µM

Fill in: IC50 of "Cc1cc(F)ccc1OCc1cc(C(=O)NCCO)cc(N2CCOCC2)n1" is ___ ≥ 50 µM

Fill in: IC50 of "Cc1cc(F)ccc1NCc1cc(CO)cc(N2CCOCC2)n1" is ___ ≥ 100 µM
